// values below are reported GI50
- Test system: LOX IMVI
- PROTOCOL DETAILS: NCI tumour cell line growth inhibition, 48 h
Activity calls are given as the source filed them. Cut-off read from the data, not from the text of the source: active = GI50 up to about 1.1 µM and inactive = higher.

Recorded results for 6 compounds are shown here.
{"columns": ["COMPOUND", "GI50"],
 "data": [
  ["CCOc1ccc2nc(-c3ccc(O)cc3)sc2c1", "> 100 µM (inactive)"],
  ["CC1=NC(C)(C)[N+]([O-])=C1", "> 10 µM (inactive)"],
  ["C1=CC(=NN=P(c2ccccc2)(c2ccccc2)c2ccccc2)C=C1", "> 100 µM (inactive)"],
  ["O=C1c2ccccc2C(=O)c2c(NCCCN3CCOCC3)ccc(NCCCN3CCOCC3)c21", "1.54 µM (inactive)"],
  ["CC1(C)[C@@H]2CC[C@]1(C)[C@H](OC(=O)CSC#N)C2", "35.2 µM (inactive)"],
  ["N#Cc1c(N)nc(Sc2ccccc2N)c(C#N)c1-c1ccccc1", "12.9 µM (inactive)"]
]}

Data request: // lookup GI50 for NS(=O)(=O)c1cc(C(=O)O)c(Cl)c([N+](=O)[O-])c1Cl
Data returned: > 100 µM (inactive)

Data request: // lookup GI50 for CNC(C)Cc1ccc(O)cc1 (centres undefined)
Data returned: > 100 µM (inactive)

Data request: // lookup GI50 for C1CCN2CC3CONC3C2C1 (centres undefined)
Data returned: > 100 µM (inactive)

Data request: // lookup GI50 for N#CCCN(CCNc1ccccc1)C(=O)Nc1ccc(NC(=O)N(CCC#N)CCNc2ccccc2)cc1
Data returned: 51.1 µM (inactive)

Data request: // lookup GI50 for Cc1cc(NS(=O)(=O)c2ccc(NO)cc2)no1
Data returned: 17.9 µM (inactive)

* * *

- System: SNB-75
- PROTOCOL DETAILS: NCI tumour cell line growth inhibition, 48 h
Active and inactive are the calls of the source. Rule as the data show it: active = GI50 up to about 1.1 µM and inactive = higher.
// values below are reported GI50

Recorded results for 5 compounds are shown here.
{"columns": ["COMPOUND", "RESULT"],
 "data": [
  ["O=[N+]([O-])c1ccc(/C(=C\\c2ccccc2)Cn2ccnc2)cc1", "27.4 µM (inactive)"],
  ["CCNC(=O)Nc1cccc(NC(=O)NCC)n1", "24.5 µM (inactive)"],
  ["C/C(CC(=O)Nc1ccc(C)c(C)c1)=N\\N(c1ccccc1)c1ccccc1", "65.9 µM (inactive)"],
  ["CC(C)(C)C1CCC2(CC1)c1[nH]c3ccccc3c1C1(CCC(C(C)(C)C)CC1)c1[nH]c3ccccc3c12 (stereo unspecified)", "70.1 µM (inactive)"],
  ["Brc1cccc(C2(CCCC3(c4cccc(Br)n4)OCCO3)OCCO2)n1", "23.9 µM (inactive)"]
]}

Data request: // lookup GI50 for Cc1cn(CCC(N)C(=O)O)c(=O)[nH]c1=O (stereo unspecified)
Data returned: > 100 µM (inactive)

Data request: // lookup GI50 for C=CCCCC1CCCNC1=S (stereo unspecified)
Data returned: > 100 µM (inactive)

Data request: // lookup GI50 for C1=CC=C2NCCOCC/N=C3/C=CC=CC=C3NCCOCC/N=C\2C=C1
Data returned: > 100 µM (inactive)

Data request: // lookup GI50 for CN1N=C(c2ccncc2)OC1c1cccc(F)c1 (stereo unspecified)
Data returned: > 100 µM (inactive)

Data request: // lookup GI50 for C1CCN2CC3CONC3C2C1 (stereo unspecified)
Data returned: > 100 µM (inactive)

Data request: // lookup GI50 for COP(=O)(OC)/C(=C\C1=CN(C(c2ccccc2)(c2ccccc2)c2ccccc2)CN1)NC=O
Data returned: 20.2 µM (inactive)

This collection of values is drawn from ChEMBL document CHEMBL1201862.
